Provenance of the data: PubChem BioAssay AID330

Parameter: T/C. Scope: all listed entries.
# Test system: P388 leukemia ip, CD2F1 mice, survival T/C
# method-summary: NCI In Vivo Anticancer Drug Screen. Data for tumor model P388 Leukemia (intraperitoneal) in CD2F1 (CDF1) mice
# measurement-conditions: endpoint: median survival time; dose: 400.0 mg/kg/injection; schedule: Q01DX001 (ip); vehicle: saline; higher = longer survival
Toxic doses and inconclusive results are not listed.

Qu. Report T/C for C=C1CC2(CC3CCC2(C)C3(C)C)OC1=O (stereo unspecified) please.
Ans. 99 % of control

Qu. Likewise for `N#CCc1c(C2(c3ccncc3)OCCO2)[nH]c2ccccc12` ?
Ans. 98 % of control

Qu. Likewise for `N=CC1=C(O)CCOC1=O` ?
Ans. 100 % of control

Qu. Likewise for `NC(N)=N/C(N)=N\c1nn[nH]n1` ?
Ans. 100 % of control

Qu. Likewise for `CN1CCC(O)(/C=C\C2(O)CCN(C)CC2)CC1` ?
Ans. 107 % of control

Qu. Likewise for `CC(=O)NNC1=NC(C)(C)CC1` ?
Ans. 102 % of control

---

# Test system: P388 leukemia ip, CD2F1 mice, survival T/C
# method-summary: NCI In Vivo Anticancer Drug Screen. Data for tumor model P388 Leukemia (intraperitoneal) in CD2F1 (CDF1) mice
# measurement-conditions: endpoint: median survival time; dose: 400.0 mg/kg/injection; schedule: Q01DX001 (ip); vehicle: Klucel (hydroxypropylcellulose) (HPC); higher = longer survival
Toxic doses and inconclusive results are not listed.
quantity-kind: T/C

Take a look at these entries with their results.
[
  {
    "molecule": "O=S(Cc1ccc2c(c1)OCO2)c1ccccc1 (stereo not drawn)",
    "result": "100 % of control"
  },
  {
    "molecule": "N#Cc1c(-c2ccccc2)nc2n1CCS2",
    "result": "100 % of control"
  },
  {
    "molecule": "N#CC1CCCC(Cc2ccccc2)(c2ccccc2)C1=O (stereo not drawn)",
    "result": "100 % of control"
  },
  {
    "molecule": "O=C1C(O)C(c2ccccc2)c2ccccc2N1c1ccccc1 (stereo not drawn)",
    "result": "89 % of control"
  },
  {
    "molecule": "CCC1(c2ccccc2)CCCC(C(N)=O)C1=O (stereo not drawn)",
    "result": "101 % of control"
  }
]

Qu. Report T/C for `NC(=O)NN(Cc1ccc(Br)cc1)N=O` please.
Ans. 97 % of control

Qu. Likewise for `O=C(Oc1c(F)c(F)c(F)c(F)c1F)N(CCCl)CCCl` ?
Ans. 94 % of control

Qu. Likewise for `CC(=O)Nc1ccc2nc3n(c(=O)c2c1)CCCC3` ?
Ans. 100 % of control

---

# Test system: P388 leukemia ip, CD2F1 mice, survival T/C
# method-summary: NCI In Vivo Anticancer Drug Screen. Data for tumor model P388 Leukemia (intraperitoneal) in CD2F1 (CDF1) mice
# measurement-conditions: endpoint: median survival time; dose: 200.0 mg/kg/injection; schedule: Q04DX002 (ip); vehicle: saline; higher = longer survival
Toxic doses and inconclusive results are not listed.
Parameter: T/C. Scope: all listed entries.

[
  {
    "compound": "O=C1NN2CCN=C2c2cnccc21",
    "T/C": "93 % of control"
  },
  {
    "compound": "COc1ccc2c(C[N+](C)(C)CCC#N)cc(=O)oc2c1",
    "T/C": "104 % of control"
  },
  {
    "compound": "CCC(C)CN1CCc2c(c3c(c(OC)c2OC)CCC3)C1 (stereo unspecified)",
    "T/C": "96 % of control"
  },
  {
    "compound": "Cc1ccc(-c2c(C)c3c(c(C)c2-c2ccc(C)cc2)-c2ccccc2C3=O)cc1",
    "T/C": "95 % of control"
  },
  {
    "compound": "O=C(O)C1CCC(CNCC2C(=O)OC3CCC4C(O)CC(O)C4CC32)CC1 (stereo unspecified)",
    "T/C": "100 % of control"
  }
]

// next entry
Qu. Report T/C for `CSC(=S)N/N=C(C)\C=N/Nc1ccccc1` please.
Ans. 106 % of control
